These entries and their values trace back to the Kinase Knowledgebase extract (Sharma et al. 2016).

- Target or system: CDK2 (UniProt P24941)
- Measurement description: Enzyme Assay
Experimental endpoint: IC50

- CC(C)N1CCN(CCOc2ccc(-c3n[nH]c4c3C(=O)c3c(NC(=O)NN5CCOCC5)cccc3-4)cc2F)CC1: < 10 nM
- Cc1cc(OCCN2CCN(C(C)C)CC2)ccc1-c1[nH]nc2c1C(=O)c1c(NC(=O)NN3CCN(C)CC3)cccc1-2: < 100 nM
- O=C(Nc1cccc2c1C(=O)c1c(-c3ccc(CNC(CO)CO)cc3)n[nH]c1-2)NN1CCOCC1: < 10 nM
- COc1cc(-c2[nH]nc3c2C(=O)c2c(NC(=O)NN4CCOCC4)cccc2-3)ccc1OCCN1CCCC1: < 100 nM
- Cc1cc(OCCCN2CCN(C(C)C)CC2)ccc1-c1[nH]nc2c1C(=O)c1c(NC(=O)NN3CCOCC3)cccc1-2: < 10 nM
